system: JAK1/TYK2 pSTAT5 (Tyr694/699) in THP-1 cell line; assay: IFNa-stimulated JAK1/TYK2 pSTAT5 (Tyr694/699) inhibition cellular assay, AlphaLISA; format: cell-based; settings: Homo sapiens; THP-1 cells, IFNa-stimulated, AlphaLISA (Assay B); read-out: Cellular THP1_IFNa-pSTATS_IC50
pIC50: −log10 of the molar value.
// values below are reported pIC50

Solved cases below.
{"columns": ["compound", "pIC50"],
 "data": [
  ["CNc1ncc(-c2nc(-c3ccccc3)co2)c2cc(NC(=O)C3CC3)ncc12", "≥ 6.30"],
  ["CNc1ncc(-c2cn[nH]c2)c2cc(NC(=O)C3CC3)ncc12", "< 6.30"],
  ["CNc1ncc(-c2ncc(C)o2)c2cc(NC(=O)C3CC3)ncc12", "< 6.30"]
]}

Qu. Identify measured pIC50 associated with "C#Cc1cnc(NC)c2cnc(NC(=O)C3CC3)cc12"
Ans. < 6.30

Qu. Identify measured pIC50 associated with "CNc1ncc(-c2cccc(F)c2)c2cc(NC(=O)C3CC3)ncc12"
Ans. < 6.30

====

test system: JAK1/TYK2 pSTAT5 (Tyr694/699) in THP-1 cell line; test: IFNa-stimulated JAK1/TYK2 pSTAT5 (Tyr694/699) inhibition cellular assay, AlphaLISA; format: cell-based; details: Homo sapiens; THP-1 cells, IFNa-stimulated, AlphaLISA (Assay B); read-out: Cellular THP1_IFNa-pSTATS_IC50
test readout: IC50

Solved cases below.
{"columns": ["molecule", "IC50"],
 "data": [
  ["C=C(C)c1cnc(NC)c2cnc(NC(=O)C3CC3)cc12 [Example 73]", "> 500 nM"],
  ["CNc1ncc(-c2ccn(C(C)C)n2)c2cc(NC(=O)C3CC3)ncc12 [Example 148]", "≤ 500 nM"],
  ["CNc1ncc(-c2ncccc2OC)c2cc(NC(C)=O)ncc12 [Example 89]", "> 500 nM"],
  ["CNc1ncc(-c2ccn(Cc3nccs3)n2)c2cc(NC(=O)C3CC3)ncc12 [Example 151]", "> 500 nM"],
  ["CNc1ncc(C#CC(=O)C2CC2)c2cc(NC(=O)C3CC3)ncc12 [Example 127]", "> 500 nM"],
  ["CNc1ncc(-c2ccc(C)s2)c2cc(NC(=O)C3CC3)ncc12 [Example 22]", "> 500 nM"],
  ["CNc1ncc(-c2ocnc2C)c2cc(NC(=O)C3CC3)ncc12 [Example 30]", "> 500 nM"],
  ["CNc1ncc(-c2ccn(Cc3ccccn3)n2)c2cc(NC(=O)C3CC3)ncc12 [Example 154]", "> 500 nM"]
]}

Qu. Identify measured IC50 associated with CNc1ncc(-c2nc3cc(F)ccc3o2)c2cc(NC(=O)C3CC3)ncc12 [Example 181]
Ans. ≤ 500 nM

====

molecular target: TYK2 JH2 (Homo sapiens, UniProt P29597); construct: purchased DiscoverX (KINOMEscan KdELECT service); host or cells: E. coli BL21-derived (T7 phage display) or HEK-293; experiment: TYK2 JH2 binding assay (KINOMEscan KdELECT competitive binding); conditions: TYK2 JH2 domain, KINOMEscan KdELECT (Assay A); read-out: Biochemical TYK2_DiscoverX_JH2_BND_Kd
Sequence (P29597 589-875 limits assumed): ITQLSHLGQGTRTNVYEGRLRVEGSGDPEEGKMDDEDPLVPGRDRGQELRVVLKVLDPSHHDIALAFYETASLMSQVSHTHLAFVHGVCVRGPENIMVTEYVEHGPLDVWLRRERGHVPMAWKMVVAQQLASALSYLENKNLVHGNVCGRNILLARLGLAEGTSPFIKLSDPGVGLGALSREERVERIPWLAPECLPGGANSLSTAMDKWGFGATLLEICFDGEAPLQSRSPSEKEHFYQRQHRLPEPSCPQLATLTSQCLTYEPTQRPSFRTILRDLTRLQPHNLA
// values below are reported Kd

Qu. Identify measured Kd associated with "CNc1ncc(-c2nc3cc(N4CCCC4)ccc3o2)c2cc(NC(=O)C3CC3)ncc12"
Ans. ≤ 100 nM

Qu. Identify measured Kd associated with "CNc1ncc(C#Cc2ccncn2)c2cc(NC(=O)C3CC3)ncc12"
Ans. ≤ 100 nM

Qu. Identify measured Kd associated with "[2H]C([2H])([2H])Nc1ncc(C#Cc2ccc(OC)cn2)c2cc(NC(=O)C3CC3)ncc12"
Ans. ≤ 100 nM

Qu. Identify measured Kd associated with "CNc1ncc(C#Cc2ccc3nc(C)sc3c2)c2cc(NC(=O)C3CC3)ncc12"
Ans. ≤ 100 nM

Qu. Identify measured Kd associated with CNc1ncc(-c2nc3ccc(N4CCOC(C(C)O)C4)cn3n2)c2cc(NC(=O)C3CC3)ncc12 (centres unmarked)
Ans. ≤ 100 nM

Qu. Identify measured Kd associated with "CNc1ncc(C#Cc2ccc3c(c2)C(F)(F)C(=O)N3C)c2cc(NC(=O)C3CC3)ncc12"
Ans. ≤ 100 nM

Qu. Identify measured Kd associated with CNc1ncc(-c2nc3ccc(N4CCOC(CCCO)C4)cn3n2)c2cc(NC(=O)C3CC3)ncc12 (centres unmarked)
Ans. ≤ 100 nM

Hello, the source for this data is patent US20240025906A1, in case you need it.
